# testedTarget: androgen receptor (AR) (Mus musculus, UniProt P19091)
# Construct: the L929 cells which express the AR but not the PR; endogenous in cells
# Sequence (P19091 whole entry): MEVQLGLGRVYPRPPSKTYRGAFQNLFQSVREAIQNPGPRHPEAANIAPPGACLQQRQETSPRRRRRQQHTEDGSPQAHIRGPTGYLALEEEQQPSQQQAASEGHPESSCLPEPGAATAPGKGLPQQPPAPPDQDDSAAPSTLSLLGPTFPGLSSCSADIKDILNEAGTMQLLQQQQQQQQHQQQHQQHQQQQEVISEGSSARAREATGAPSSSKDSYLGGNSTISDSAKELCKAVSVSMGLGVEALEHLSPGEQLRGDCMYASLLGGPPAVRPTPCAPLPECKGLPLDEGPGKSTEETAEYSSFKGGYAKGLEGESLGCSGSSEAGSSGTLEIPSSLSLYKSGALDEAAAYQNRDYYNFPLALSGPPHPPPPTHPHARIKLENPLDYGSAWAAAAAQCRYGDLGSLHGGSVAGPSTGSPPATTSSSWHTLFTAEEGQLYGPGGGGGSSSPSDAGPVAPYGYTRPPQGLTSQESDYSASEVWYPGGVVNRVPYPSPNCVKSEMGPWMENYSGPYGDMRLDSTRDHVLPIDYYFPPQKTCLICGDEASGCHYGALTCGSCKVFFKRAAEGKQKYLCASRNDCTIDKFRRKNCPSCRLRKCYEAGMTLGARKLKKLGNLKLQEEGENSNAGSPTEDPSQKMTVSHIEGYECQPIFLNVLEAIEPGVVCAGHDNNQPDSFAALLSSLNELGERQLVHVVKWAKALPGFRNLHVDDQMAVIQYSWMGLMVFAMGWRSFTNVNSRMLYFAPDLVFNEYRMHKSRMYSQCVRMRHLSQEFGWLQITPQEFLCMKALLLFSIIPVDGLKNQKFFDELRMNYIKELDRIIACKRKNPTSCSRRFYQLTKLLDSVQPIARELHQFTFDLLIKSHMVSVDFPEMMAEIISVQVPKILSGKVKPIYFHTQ
# test: Anti-androgenic (AR antagonistic) activity, PRE-tk-luciferase reporter in L929 cells co-treated with DHT
# runParameters: L929 cells expressing AR but not PR; PRE-tk-luciferase reporter; co-treated with 3 nM DHT; luciferase measured 24 hours after treatment
recordedEndpoint: IC50 (µM)
Give bare numbers, in µM.

// Cn1c(C#N)ccc1-c1ccc2c(c1)C(C)(C)OC(=S)N2 : IC50 value = 0.109
